Test: Plasma drug concentrations in treated infected gerbils
Format: in vivo
Settings: gerbil, plasma, sc, 150 mg/kg, B. malayi model; 150 mg/kg × 14 days, QD, SC (solution); read-out: drug concentration 24 h after last dose
VALUE_TYPE: concentration at 24 h after last dose (µM)

>  <COMPOUND>
COC(=O)Nc1nc2cc(C(=O)NCc3ccc4c(c3)B(O)OC4(C)C)ccc2[nH]1 [8a]

>  <VALUE_TYPE>
concentration at 24 h after last dose

>  <VALUE>
2.47

$$$$

---

Experiment: Plasma drug concentrations in treated infected gerbils
Assay type: in vivo
Conditions: gerbil, plasma, sc, 150 mg/kg, B. malayi model, necropsy day 42; 150 mg/kg × 14 days, QD, SC (solution); read-out: drug concentration at necropsy
VALUE_TYPE: concentration at 42 day (necropsy) (µM)

>  <SMILES_REPR>
COC(=O)Nc1nc2cc(C(=O)NCc3ccc4c(c3)B(O)OC4(C)C)ccc2[nH]1

>  <UNIT>
µM

>  <VALUE>
0.01

$$$$

---

Experiment: Plasma drug concentrations in treated infected gerbils
Type: in vivo
Conditions: gerbil, plasma, sc, 300 mg/kg, L. sigmodontis model, day 21; 300 mg/kg × 7 days, QD, SC (suspension); read-out: drug concentration interim
Method: We characterized the in vitro ADME properties of 8a in preparation for evaluation of this compound in our primary in vivo model in gerbils. […] Additionally, when plasma obtained from treated animals at necropsy was analyzed for 8a, we observed an outcome similar to that observed in the adult implantation model, e.g., that measurable levels were present at this time point in the subcutaneous-dosed groups but not in the orally dosed groups, weeks after administration of the drug. […]

>  <MOLECULE>
COC(=O)Nc1nc2cc(C(=O)NCc3ccc4c(c3)B(O)OC4(C)C)ccc2[nH]1 [8a]

>  <concentration at 21 day, µM>
10.6

$$$$

---

Assay: Plasma drug concentrations in treated infected gerbils
Assay type: in vivo
Settings: gerbil, plasma, sc, 300 mg/kg, L. sigmodontis model, day 42; 300 mg/kg × 7 days, QD, SC (suspension); read-out: drug concentration interim
VALUE_TYPE: concentration at 42 day (µM)

>  <SMILES_REPR>
COC(=O)Nc1nc2cc(C(=O)NCc3ccc4c(c3)B(O)OC4(C)C)ccc2[nH]1

>  <VALUE>
4.64

$$$$

---

Experiment: Plasma drug concentrations in treated infected gerbils
Assay type: in vivo
Conditions: gerbil, plasma, po, 100 mg/kg, B. pahangi model; 100 mg/kg × 28 days, QD, PO (suspension); read-out: drug concentration 24 h after last dose
VALUE_TYPE: concentration at 24 h after last dose

>  <SMILES_REPR>
COC(=O)Nc1nc2cc(C(=O)NCc3ccc4c(c3)B(O)OC4(C)C)ccc2[nH]1

>  <VALUE>
130 nM

$$$$

---

Experiment: Plasma drug concentrations in treated infected gerbils
Type: in vivo
Settings: gerbil, plasma, sc, 100 mg/kg, L. sigmodontis model; 100 mg/kg × 14 days, QD, SC (suspension); read-out: drug concentration 24 h after last dose
VALUE_TYPE: concentration at 24 h after last dose (µM)

>  <SMILES_REPR>
COC(=O)Nc1nc2cc(C(=O)NCc3ccc4c(c3)B(O)OC4(C)C)ccc2[nH]1

>  <VALUE_TYPE>
concentration at 24 h after last dose

>  <UNIT>
µM

>  <VALUE>
9.3

$$$$

---

Test: Plasma drug concentrations in treated infected gerbils
Assay type: in vivo
Details: gerbil, plasma, sc, 100 mg/kg, B. malayi model; 100 mg/kg × 14 days, QD, SC (suspension); read-out: drug concentration 24 h after last dose
VALUE_TYPE: concentration at 24 h after last dose (µM)

>  <SMILES_REPR>
COC(=O)Nc1nc2cc(C(=O)NCc3ccc4c(c3)B(O)OC4(C)C)ccc2[nH]1

>  <UNIT>
µM

>  <VALUE>
4.1

$$$$

---

Tested on: G2/M arrest (functional indicator of interaction with mammalian tubulin)
Assay: mammalian G2/M arrest assay
Type: cell-based
Conditions: Table 3; read-out: G2/M IC50
pIC50: −log10 of the molar value.
Measured pIC50, listed per entry for reference.

>  <SMILES_REPR>
COC(=O)Nc1nc2ccc(C(=O)NCc3ccc4c(c3)B(O)OC4(C)C)cc2n1C

>  <REL>
<

>  <pIC50>
4.00

$$$$
>  <SMILES_REPR>
COC(=O)Nc1nc2cc(C(=O)NCc3ccc4c(c3)B(O)OC4(C)C)ccc2n1C

>  <REL>
<

>  <pIC50>
4.00

$$$$
>  <SMILES_REPR>
COC(=O)Nc1nc2c(F)c(C(=O)NCc3ccc4c(c3)B(O)OC4(C)C)ccc2[nH]1

>  <REL>
=

>  <pIC50>
4.80

$$$$
>  <SMILES_REPR>
COC(=O)Nc1nc2ccc(C(=O)N(C)Cc3ccc4c(c3)B(O)OC4(C)C)cc2[nH]1

>  <REL>
=

>  <pIC50>
5.39

$$$$
>  <SMILES_REPR>
COC(=O)Nc1nc2ccc(C(=O)N(CCN(C)C)Cc3ccc4c(c3)B(O)OC4(C)C)cc2[nH]1

>  <REL>
=

>  <pIC50>
4.46

$$$$

---

Test: Plasma drug concentrations in treated infected gerbils
Type: in vivo
Conditions: gerbil, plasma, sc, 300 mg/kg, L. sigmodontis model; 300 mg/kg × 7 days, QD, SC (suspension); read-out: drug concentration 24 h after last dose

>  <COMPOUND>
COC(=O)Nc1nc2cc(C(=O)NCc3ccc4c(c3)B(O)OC4(C)C)ccc2[nH]1 [8a]

>  <UNIT>
µM

>  <concentration at 24 h after last dose>
7.85

$$$$
